target: UniProtKB Q9NR96; assay: TLR9 inhibition reporter assay (HEK-Blue SEAP); conditions: read-out: TLR9 IC50; HEK-Blue cells overexpressing human TLR9, ODN2006 5 nM stimulation, SEAP reporter;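 note: SEAP driven by IFN-β minimal promoter carrying five NF-κB and AP-1 sites, 22 h at 37 °C, compounds 0.05 nM–50 µM, inhibition scaled between agonist-plus-DMSO and reference-inhibitor wells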
Sequence (Q9NR96 26-1032): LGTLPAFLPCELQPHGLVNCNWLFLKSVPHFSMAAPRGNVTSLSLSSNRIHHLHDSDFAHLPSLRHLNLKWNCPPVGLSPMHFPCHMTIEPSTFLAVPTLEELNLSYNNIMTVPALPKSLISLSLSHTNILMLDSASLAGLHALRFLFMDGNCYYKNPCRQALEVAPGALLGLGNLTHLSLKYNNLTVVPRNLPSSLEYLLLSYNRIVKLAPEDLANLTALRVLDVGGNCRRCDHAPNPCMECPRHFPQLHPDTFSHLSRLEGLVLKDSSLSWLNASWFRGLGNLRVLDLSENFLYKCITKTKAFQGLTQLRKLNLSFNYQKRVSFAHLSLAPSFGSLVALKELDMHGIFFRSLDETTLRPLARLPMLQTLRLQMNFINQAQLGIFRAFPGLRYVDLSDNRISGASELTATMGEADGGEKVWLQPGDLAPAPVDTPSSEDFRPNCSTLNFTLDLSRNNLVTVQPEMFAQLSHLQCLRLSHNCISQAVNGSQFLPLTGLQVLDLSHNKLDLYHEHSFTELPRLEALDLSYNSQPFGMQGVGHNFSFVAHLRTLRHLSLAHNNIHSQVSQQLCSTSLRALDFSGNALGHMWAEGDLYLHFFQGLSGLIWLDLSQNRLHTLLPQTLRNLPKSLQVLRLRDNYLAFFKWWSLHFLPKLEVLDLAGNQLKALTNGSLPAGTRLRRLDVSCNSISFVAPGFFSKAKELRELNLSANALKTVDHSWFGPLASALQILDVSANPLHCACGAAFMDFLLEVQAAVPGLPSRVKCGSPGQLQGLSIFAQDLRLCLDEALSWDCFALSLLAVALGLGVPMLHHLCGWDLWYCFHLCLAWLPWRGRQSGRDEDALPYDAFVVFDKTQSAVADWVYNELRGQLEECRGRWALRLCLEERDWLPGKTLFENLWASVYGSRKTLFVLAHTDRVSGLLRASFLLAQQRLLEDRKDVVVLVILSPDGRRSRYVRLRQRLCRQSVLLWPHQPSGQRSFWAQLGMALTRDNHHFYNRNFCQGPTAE
Lab note: compare IC50 with 0.7 µM, writing criterion met if less and criterion not met if equal or more.

Record Cc1c(-c2[nH]c3cnc(C4CCN(C(=O)CN(C)C)CC4)cc3c2C(C)C)cn2ncnc2c1C : is its IC50 strictly below 0.7 µM?
criterion met

###

target: human TLR7 (Homo sapiens (Human)); experiment: TLR7 inhibition reporter assay (HEK-Blue SEAP); conditions: HEK-Blue cells overexpressing human TLR7, gardiquimod 7.5 μM stimulation
Sequence (Q9NYK1 27-1049): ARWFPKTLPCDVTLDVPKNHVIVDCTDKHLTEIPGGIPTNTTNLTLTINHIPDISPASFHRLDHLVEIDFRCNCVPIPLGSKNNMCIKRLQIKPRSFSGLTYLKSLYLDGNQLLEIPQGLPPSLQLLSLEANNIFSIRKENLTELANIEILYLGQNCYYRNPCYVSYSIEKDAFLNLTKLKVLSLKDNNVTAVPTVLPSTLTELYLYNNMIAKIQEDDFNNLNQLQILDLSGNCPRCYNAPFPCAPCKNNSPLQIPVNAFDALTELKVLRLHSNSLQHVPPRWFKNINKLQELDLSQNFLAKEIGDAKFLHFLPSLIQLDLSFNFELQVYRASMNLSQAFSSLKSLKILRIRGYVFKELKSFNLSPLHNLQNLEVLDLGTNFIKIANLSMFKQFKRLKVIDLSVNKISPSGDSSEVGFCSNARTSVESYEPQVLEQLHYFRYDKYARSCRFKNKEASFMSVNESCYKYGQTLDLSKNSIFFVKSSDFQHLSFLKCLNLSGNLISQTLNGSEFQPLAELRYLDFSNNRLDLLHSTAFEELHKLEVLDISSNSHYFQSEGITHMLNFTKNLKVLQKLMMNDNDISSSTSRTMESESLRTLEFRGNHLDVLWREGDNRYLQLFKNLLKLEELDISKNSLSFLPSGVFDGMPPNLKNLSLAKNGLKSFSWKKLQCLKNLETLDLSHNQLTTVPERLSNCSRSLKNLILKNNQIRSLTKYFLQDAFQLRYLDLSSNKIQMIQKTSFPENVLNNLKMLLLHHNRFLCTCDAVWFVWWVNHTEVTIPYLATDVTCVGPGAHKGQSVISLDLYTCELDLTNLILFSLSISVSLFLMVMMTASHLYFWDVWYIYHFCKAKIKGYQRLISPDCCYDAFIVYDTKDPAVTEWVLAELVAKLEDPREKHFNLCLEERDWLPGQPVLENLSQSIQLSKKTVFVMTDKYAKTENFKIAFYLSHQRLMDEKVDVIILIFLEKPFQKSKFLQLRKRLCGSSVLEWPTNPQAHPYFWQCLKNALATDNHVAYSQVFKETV
Lab note: compare IC50 with 2 nM, writing yes (1) if less and no (0) if equal or more.

The following compounds have reported results that may help.
Record CNC(=O)CN(C)C1CCC(c2cc3c(C(C)C)c(-c4cc(OC)c5ncnn5c4)[nH]c3cn2)CC1 (stereo not shown) [Example 338] : is its IC50 strictly below 2 nM?
no (0)

Record CNC(=O)CN1CCN(c2ncc3[nH]c(-c4cc(OC)c5ncnn5c4)c(C(C)C)c3c2Cl)CC1 : is its IC50 strictly below 2 nM?
no (0)

Record CCN(C)C1CCC(c2ncc3[nH]c(-c4cn5ncnc5c(C)c4C)c(C(C)C)c3c2F)CC1 (stereo not shown) [Example 263] : is its IC50 strictly below 2 nM?
yes (1)

Others:
Record Cc1c(-c2[nH]c3cnc(C4CCN(CC(=O)N(C)C)CC4)cc3c2C(C)C)cn2ncnc2c1C : is its IC50 strictly below 2 nM?
no (0)

Record Cc1cc(-c2[nH]c3cnc(C4CCC(NCC(C)(C)C)CC4)c(F)c3c2C(C)C)cn2ncnc12 (stereo not shown) [Example 48] : is its IC50 strictly below 2 nM?
no (0)

Record Cc1c(-c2[nH]c3cnc(C4CCC(NC5COC5)CC4)cc3c2C(C)C)cn2ncnc2c1C (stereo not shown) [Example 346] : is its IC50 strictly below 2 nM?
no (0)

Record COc1cc(-c2[nH]c3cnc(C4CCC(NC5COC5)CC4)c(F)c3c2C(C)C)cn2ncnc12 (stereo not shown) [Example 224] : is its IC50 strictly below 2 nM?
yes (1)
